meta.source: patent US20090105283A1

Target: stearoyl-CoA desaturase (SCD) (Rattus norvegicus, UniProt P07308)
Construct: The microsomes were quickly thawed and added to assay buffer so that a concentration of 0.4 mg/ml was achieved; from tissue
Sequence (P07308 1-358): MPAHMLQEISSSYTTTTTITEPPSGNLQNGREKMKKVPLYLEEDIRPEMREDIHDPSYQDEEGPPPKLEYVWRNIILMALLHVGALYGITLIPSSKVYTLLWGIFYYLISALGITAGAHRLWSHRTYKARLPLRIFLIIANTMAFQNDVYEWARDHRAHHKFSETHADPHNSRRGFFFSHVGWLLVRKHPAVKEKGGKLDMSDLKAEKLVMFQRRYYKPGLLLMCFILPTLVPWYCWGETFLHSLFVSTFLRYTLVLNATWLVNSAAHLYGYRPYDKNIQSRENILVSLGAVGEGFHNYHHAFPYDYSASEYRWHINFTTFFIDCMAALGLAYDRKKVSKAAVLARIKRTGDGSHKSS
Test: SCD assay with rat liver microsomes ([3H]stearoyl CoA, adapted from Talamo and Bloch)
Format: biochemical
Settings: Table 2 (Example 21, procedures of Example 20); rat liver microsomes, [3H]stearoyl CoA substrate
Catalogue of pIC50 values
# pIC50 = -log10(concentration in molar units)

Problem: Recorded pIC50 for O=C(CO)Nc1ccc2ncn(CCc3ccc(Cl)cc3)c(=O)c2c1 , please?
Result: 7.70

Problem: Next up: O=C(Nc1ccc2ncn(Cc3ccc(Cl)c(Cl)c3)c(=O)c2c1)[C@@H](O)c1ccccc1
Result: 5.64

Problem: Next up: CC(=O)OCC(=O)Nc1ccc2ncn(Cc3ccc(Cl)cc3)c(=O)c2c1
Result: 6.03

Problem: Next up: N#Cc1ccccc1OCCCn1cnc2ccc(NC(=O)OCc3ccccc3)cc2c1=O
Result: 6.32

Problem: Next up: O=C(Nc1cnc2ncn(Cc3ccc(Cl)cc3)c(=O)c2c1)OCc1ccccc1
Result: 7.11
